The values you see were collected from PubChem BioAssay (NCI).

tested on: EKVX NSCLC; experiment: NCI-60 one-dose screen, 48 h; settings: 10 µM
Compounds without any hit were thinned out: in the full panel of roughly 83,000, 20% have a hit. The source made the active and inactive calls. How the source made its calls: active means growth percent below 10; inactive means the rest.
Response enum: active, inactive

Which outcome did this test record for the molecule CCCC(=O)NNc1[nH]c(-c2ccc(OC)cc2)cc1C(=O)OCC ?
inactive

GET /call?item= CC(=O)c1nn(-c2ccc(C)cc2)cc1C(=O)c1cc2c(ccc3ccccc32)oc1=O returns the recorded outcome of this test.
inactive

Per the records of this test, what outcome belongs to COc1cc(-c2nn(-c3ccc(NC(=O)Nc4ccc(Cl)c(C(F)(F)F)c4)cc3)cc2-c2ccncc2)ccc1Cl ?
active

Lab log entry: O=c1c(N=Nc2nccs2)c(-c2ccccc2)[nH]n1-c1nc(-c2ccccc2)cs1 — outcome as called in the assay?
inactive

Assay outcome for O=C(NCCCl)Nc1nccnc1OCc1ccc(F)cc1 : what was it?
inactive

GET /call?item= C/C=C(/C)C(=O)OC1C=C(CO)C(=O)C(OC(=O)/C(C)=C\C)C1C(C)C (configuration not stated) returns the recorded outcome of this test.
active

Could you check what this test reported for CC(=O)c1cc(Nc2cc(C)nc(N)n2)cc(C(C)=O)c1 ?
inactive

I would be grateful if you could indicate the recorded call for C[C@@H](c1ccc2c(c1)[nH]c1ccc(Cl)cc12)c1nc2ccccc2[nH]1 .
inactive

Assay outcome for COc1cc(OC)c(NC(=O)n2ncc3cc(Nc4ncnc5ccccc45)ccc32)cc1Cl : what was it?
inactive

Dear all, I need the recorded test outcome for COC(=O)c1ccc2[nH]c(O)c(C(=Nc3ccc(N(C)C(=O)CN4CCN(C)CC4)cc3)c3ccc(OC)cc3)c2c1 , thank you.
inactive

# fetch the recorded call for NC(N)=Nc1ccc(/C=C2\C=Cc3ccccc32)cc1 here
inactive

Hi, sorry to bother you, what did the test record for CCCNC(=O)Oc1ccc(/C(=C(/C)Cc2ccc(OC)cc2)c2ccc(OCCN3CCCCC3)cc2)cc1 ?
inactive

Recorded test outcome, item Cc1ncc(C(=O)Nc2ccc(CN3CCN(C)CC3)c(C(F)(F)F)c2)cc1C#Cc1c(N)ncc2ccccc12
active

Identify the outcome logged in this assay for the molecule shown: COC(=O)c1ccc2[nH]c(O)c(C(=Nc3ccc(N(C)C(=O)CN4CCN(C)CC4)cc3)c3cccc(OC)c3)c2c1
inactive

Called result for COc1cc(-c2nn(-c3ccc(NC(=O)c4ccc(Cl)c(C(F)(F)F)c4)cc3)cc2-c2ccncc2)ccc1Cl
inactive

Which outcome was entered for the molecule Cc1cc2cn3c4ccc(O)cc4nc(N)c3c2cc1C in this test?
inactive

Just curious, what result did CCCCCCCCCC[N+](C)(C)C get here?
inactive

Hello, I am checking results. What call was entered for Nc1nc2cc(O)ccc2n2cc3c(F)cccc3c12 ?
inactive

Recorded test call requested for Cc1c(O)c(N=Nc2ccc(C(=O)O)c(O)c2)c2ccccc2c1O
inactive

What classification did Cc1ccc(NCc2cn(-c3ccc(C(=O)O)cc3)nc2-c2ccc(C(=O)O)cc2)cc1 end up with in this test?
inactive

Tell me the assay call for COc1ccc2c(c1)/C(=C1/S/C(=N/c3nnc(C)s3)NC1=O)C(=O)N2Cc1ccc(Br)cc1 please.
inactive

Which outcome was entered for the molecule O=C(Nc1cccc(Cn2c(=O)[nH]c3ccc(Oc4ncccn4)cc3c2=O)c1)c1cccc(F)c1 in this test?
inactive

Hi, do you know how CC(C)OC(=O)c1ccc2n1CCCc1cnc(Nc3ccccc3)nc1-2 came out in this test?
inactive

What classification did COc1ccccc1C(=O)Nc1cccc(-c2cc(=O)c3c(OC)c(OC)c(OC)cc3o2)c1 end up with in this test?
inactive

Test call, this molecule: Clc1ccc(N/N=C(\c2ccccc2)c2ccccn2)nc1
inactive

Identify the outcome logged in this assay for the molecule shown: Nc1nc2c(c3ncncc13)C(c1cccc(C(F)(F)F)c1)Cc1ncncc1-2 (configuration not stated)
inactive

What call does the record list for CCOC(=O)c1ccc2n1CCCc1cnc(NC(C)=O)nc1-2 ?
inactive

Hey, what did the test say about O=C(O)c1ccc(-c2nn(-c3ccc(C(=O)O)cc3)cc2CNc2ccc(Br)cc2)cc1 ?
inactive

What did this assay record as the result for CC(C)(C)C(=O)CCCCCCCC/C=C/CCCC(O)c1ccco1 (configuration not stated) ?
inactive

What did the test return for CCC(C)(C)c1ccc(OCCCCCCN2CCN(c3ccc(C)c(Cl)c3)CC2)cc1 ?
inactive

Entry Clc1ccc(N/N=C(/c2ccccc2)c2ccccn2)nc1 : call = ?
inactive

Which outcome was assigned to CCCCCCNc1nc(N2CCOCC2)c2[nH]c(NCCCCCC)nc2n1 in this test?
active

Record request — test call for CC(=N\N=C(N)N)/C(=N/N=C(N)N)c1ccccc1
inactive

Can you look up the reported call for COc1cc(N2C(=O)C=CC2=O)ccc1N1C(=O)C=CC1=O for me?
inactive

For NNC(=O)CNc1ccc2ccccc2c1 , what call appears in the results of this test?
inactive

Please let me know the test result on file for CCOC(=O)CCCCCCCCC(=O)OCC .
inactive

Dear all, I need the recorded test outcome for N=C(N)N=Nc1ccc(NN=C(N)N)c2ccccc12 , thank you.
inactive

How was NNC(=S)N1N=C(c2cc3ccccc3o2)CC1c1c[nH]c2ccccc12 (configuration not stated) classified in this test?
inactive

Query: recorded result category for COC1=C(OC)C(=O)c2ccccc2C1=O in this test
inactive

What was the test verdict on COc1ccc(C(=O)N2N=C(c3ccc(Br)cc3)CC2c2cn(-c3ccccc3)nc2-c2ccccc2)cc1 (configuration not stated) ?
inactive

Which outcome was entered for the molecule COc1ccc(Cn2cc3c(c2-c2ccccc2)CCc2cnoc2-3)cc1N in this test?
inactive

Hey, what did the test say about O=C(Nc1ccc(-n2cc(-c3ccncc3)c(-c3ccc(Cl)c(O)c3)n2)cc1)Nc1cc(C(F)(F)F)cc(C(F)(F)F)c1 ?
inactive
